- System: HIV-IIIB
- Protocol notes: HIV-IIIB infection of JE6.1 cells refractory to d4T, D4T IC50 with FUdr (RT activity)
- Format: cell-based, HIV-1
- Experimental context: Human immunodeficiency virus 1, IIIB, 144 h, D4TR1 cells (refractory to d4T); concentration of D4T for 50% inhibition of RT activity on day 6; F = uM FUdr
Assay endpoint: IC50 (µM)
Numbers only, in µM.

## Task Reported IC50, compound Cc1cn([C@H]2C=C[C@@H](CO)O2)c(=O)[nH]c1=O : ____
## Result 74

====

- Tested on: recombinant HIV, recombinant MLV, or replication-competent HIV
- Format: cell-based
- Experimental context: frequency of persistently resistant colonies; Hela-T4; MLV-neo
So I've got a bunch of molecules here, and I need their Frequency values.

In the examples that follow, each entry is paired with its recorded Frequency.
smiles=O=c1[nH]cnc2c1ncn2[C@H]1CC[C@@H](CO)O1 result="4.4 × 10^−4"
smiles=Nc1ccn([C@H]2CC[C@@H](CO)O2)c(=O)n1 result="2.2 × 10^−4"
smiles=Cc1cn([C@H]2C=C[C@@H](CO)O2)c(=O)[nH]c1=O result="2.5 × 10^−3"

Could you now look at the following molecule, please?
## Task Reported Frequency, molecule Cc1cn([C@H]2C[C@H](N=[N+]=[N-])[C@@H](CO)O2)c(=O)[nH]c1=O : ____
## Result 2.2 × 10^−4

====

- Protocol notes: in vitro
- Experimental context: human
Assay endpoint: EC50 at 3 days
Answer format reminder: number followed by unit.

## Task Reported EC50 at 3 days, molecule O=c1[nH]c(=O)n([C@H]2C[C@H](O)[C@@H](CO)O2)cc1F : ____
## Result 7 µM

====

- Protocol notes: HPLC analysis of phosphorylated AZT metabolites in clones incubated with 3H-AZT
- Assay type: in vitro ADME
- Experimental context: S1 (sensitive) cell line; 3H-AZT for 4 hours; HPLC
Assay endpoint: concentration in cells (pmoles/10^6 cells)
Numbers only, in pmoles/10^6 cells.

compound="Cc1cn([C@H]2C[C@H](N=[N+]=[N-])[C@@H](COP(=O)(O)OP(=O)(O)O)O2)c(=O)[nH]c1=O [AZTDP, 3′-azido-3′-deoxythymidine diphosphate]" assay_endpoint="concentration in cells" measured_number=0.0116
compound="Cc1cn([C@H]2C[C@H](N=[N+]=[N-])[C@@H](COP(=O)(O)O)O2)c(=O)[nH]c1=O [AZTMP, 3′-azido-3′-deoxythymidine monophosphate]" assay_endpoint="concentration in cells" measured_number=0.1212
compound=Cc1cn([C@H]2C[C@H](N=[N+]=[N-])[C@@H](CO)O2)c(=O)[nH]c1=O assay_endpoint="concentration in cells" measured_number=0.0206

Could you now look at the following compound, please?
## Task Reported concentration in cells, compound Cc1cn([C@H]2C[C@H](N=[N+]=[N-])[C@@H](CO[P@](=O)(O)O[P@](=O)(O)OP(=O)(O)O)O2)c(=O)[nH]c1=O [AZTTP, 3′-azido-3′-deoxythymidine triphosphate] : ____
## Result 0.0158

====

- Protocol notes: MTT cytotoxicity assay in R116 cells
- Assay type: cell-based
- Experimental context: human, R116 cell line, three days, FIG. 8, read-out: ED50 (cytotoxicity)
Assay endpoint: EC50 at 3 days (nM)
One number for each entry, in nM.

## Task Reported EC50 at 3 days, molecule O=c1[nH]c(=O)n([C@H]2C[C@H](O)[C@@H](CO)O2)cc1F : ____
## Result 700
